Target: human TLR9 (Homo sapiens (Human))
Sequence (Q9NR96 26-1032): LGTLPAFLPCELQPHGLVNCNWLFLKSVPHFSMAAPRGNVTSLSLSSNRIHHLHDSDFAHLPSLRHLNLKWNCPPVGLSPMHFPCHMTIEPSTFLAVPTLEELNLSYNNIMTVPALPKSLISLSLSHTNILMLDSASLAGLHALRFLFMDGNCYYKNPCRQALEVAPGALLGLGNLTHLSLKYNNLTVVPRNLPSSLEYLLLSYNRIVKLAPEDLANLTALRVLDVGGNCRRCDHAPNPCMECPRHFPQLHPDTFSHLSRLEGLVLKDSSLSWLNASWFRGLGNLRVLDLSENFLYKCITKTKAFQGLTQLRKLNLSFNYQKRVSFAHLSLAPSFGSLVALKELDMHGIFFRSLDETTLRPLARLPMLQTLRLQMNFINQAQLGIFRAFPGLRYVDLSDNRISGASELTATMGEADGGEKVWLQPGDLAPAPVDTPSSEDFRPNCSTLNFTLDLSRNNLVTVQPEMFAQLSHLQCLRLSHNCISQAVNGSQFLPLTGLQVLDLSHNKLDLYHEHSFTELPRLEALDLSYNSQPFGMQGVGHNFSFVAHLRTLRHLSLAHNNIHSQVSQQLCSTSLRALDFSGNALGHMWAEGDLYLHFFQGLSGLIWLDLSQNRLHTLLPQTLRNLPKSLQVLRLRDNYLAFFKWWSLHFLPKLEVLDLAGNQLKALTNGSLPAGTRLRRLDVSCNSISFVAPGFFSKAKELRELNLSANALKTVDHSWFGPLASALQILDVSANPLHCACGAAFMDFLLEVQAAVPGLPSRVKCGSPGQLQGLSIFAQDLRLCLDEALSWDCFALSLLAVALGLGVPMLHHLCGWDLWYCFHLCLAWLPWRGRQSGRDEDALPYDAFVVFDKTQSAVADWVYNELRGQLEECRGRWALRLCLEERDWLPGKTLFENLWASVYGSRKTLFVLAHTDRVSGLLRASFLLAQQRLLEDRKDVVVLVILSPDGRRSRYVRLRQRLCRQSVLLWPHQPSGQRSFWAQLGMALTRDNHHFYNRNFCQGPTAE
Test: TLR9 inhibition reporter assay (HEK-Blue cells, SEAP reporter, ODN2006 stimulation);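 further: compounds tested over 0.05 nM to 50 µM, 22 h incubation, inhibition taken as SEAP signal drop from agonist plus DMSO wells toward a known inhibitor control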
Conditions: read-out: TLR9 IC50, HEK-Blue cells overexpressing human TLR9, ODN2006 5 nM
pIC50: −log10 of the molar value.
Lab note: compare pIC50 against 6. Equal or greater, write met. Smaller, write not met.

| compound | experimental-system | classification |
| --- | --- | --- |
| Cc1cc(-c2[nH]c3ccc(C4CCN(C(=O)CNCCO)CC4)cc3c2C(C)C)cc(C)n1 | human TLR9 (Homo sapiens (Human)) | met |
| Cc1cc(-c2[nH]c3ccc(C4CCN(C(=O)c5cccn(C6CC6)c5=O)CC4)cc3c2C(C)C)cc(C)n1 | human TLR9 (Homo sapiens (Human)) | not met |
| Cc1cc(-c2[nH]c3ccc(C4CCN(C5CCCOC5)CC4)cc3c2C(C)C)c(F)cn1 (centres unmarked) | human TLR9 (Homo sapiens (Human)) | not met |
| CCc1c(-c2ccnc(C)c2)[nH]c2ccc(C3CCN(CCCN(C)C)CC3)cc12 | human TLR9 (Homo sapiens (Human)) | met |
| CCc1c(-c2ccnc(C)c2)[nH]c2ccc(C3CCN(C(=O)C4CCCNC4)CC3)cc12 (centres unmarked) | human TLR9 (Homo sapiens (Human)) | met |
| Cc1cc(-c2[nH]c3ccc(C4CCN(C(=O)CN5CCCC5)CC4)cc3c2C(C)C)cc(C)n1 | human TLR9 (Homo sapiens (Human)) | met |
| Cc1cc(-c2[nH]c3ccc(C4CCN(C(=O)Cn5cnnn5)CC4)cc3c2C(C)C)cc(C)n1 | human TLR9 (Homo sapiens (Human)) | not met |
| Cc1cc(-c2[nH]c3ccc(C4CCN(C(=O)CN(C)C5CCOC5)CC4)cc3c2C(C)C)cc(C)n1 (centres unmarked) | human TLR9 (Homo sapiens (Human)) | not met |
| Cc1cc(-c2[nH]c3ccc(C4CCN(C(=O)CN5CC(=O)NC5=O)CC4)cc3c2C(C)C)cc(C)n1 | human TLR9 (Homo sapiens (Human)) | not met |
| Cc1cc(-c2[nH]c3ccc(C4CCN(C(=O)C(C)C)CC4)cc3c2C(C)C)ccn1 | human TLR9 (Homo sapiens (Human)) | not met |
| Cc1cc(-c2[nH]c3ccc(C4CCN(C(=O)CC#N)CC4)cc3c2C(C)C)ccn1 | human TLR9 (Homo sapiens (Human)) | not met |
| CC(=O)N1CCC(c2ccc3[nH]c(-c4cc(C)nc(F)c4)c(C(C)C)c3c2)CC1 | human TLR9 (Homo sapiens (Human)) | not met |
| COCCC(=O)N1CCC(c2ccc3[nH]c(-c4cc(C)nc(C)c4)c(C(C)C)c3c2)CC1 | human TLR9 (Homo sapiens (Human)) | not met |
| CNCCN1CCC(c2ccc3[nH]c(-c4ccnc(N5CCN(C)CC5)c4)c(C)c3c2)CC1 | human TLR9 (Homo sapiens (Human)) | met |
| Cc1cc(-c2[nH]c3ccc(C4CCNCC4)cc3c2C(C)C)c(C(N)=O)cn1 | human TLR9 (Homo sapiens (Human)) | not met |
| CCc1c(-c2ccncc2)[nH]c2ccc(C3CCN(C4CC(C)(C)NC(C)(C)C4)CC3)cc12 | human TLR9 (Homo sapiens (Human)) | met |
| Cc1cc(-c2[nH]c3ccc(C4CCNCC4)cc3c2CC2CC2)ccn1 | human TLR9 (Homo sapiens (Human)) | met |
| Cc1nccc(-c2[nH]c3ccc(C4CCNCC4)cc3c2C(C)C)c1N | human TLR9 (Homo sapiens (Human)) | met |
| Cc1cc(-c2[nH]c3ccc(C4CCN(Cc5c[nH]nn5)CC4)cc3c2C(C)C)c(C)cn1 | human TLR9 (Homo sapiens (Human)) | not met |
| CNCCN1CCC(c2ccc3[nH]c(-c4ccnc(Cl)c4)c(C)c3c2)CC1 | human TLR9 (Homo sapiens (Human)) | met |
| Cc1cc(-c2[nH]c3ccc(C4CCNCC4)cc3c2C(C)C)c(N)c(C)n1 | human TLR9 (Homo sapiens (Human)) | met |
| Cc1cc(-c2[nH]c3ccc(C4CCN(C(=O)CN5CCCS5(=O)=O)CC4)cc3c2C(C)C)cc(C)n1 | human TLR9 (Homo sapiens (Human)) | not met |
| Cc1cc(-c2[nH]c3ccc(C4CCN(CCC#N)CC4)cc3c2C(C)C)c(F)cn1 | human TLR9 (Homo sapiens (Human)) | not met |
| Cc1cc(-c2[nH]c3ccc(C4CCN(C(=O)c5cscn5)CC4)cc3c2C(C)C)ccn1 | human TLR9 (Homo sapiens (Human)) | not met |
| Cc1cc(-c2[nH]c3ccc(C4CCN(C(=O)CNS(C)(=O)=O)CC4)cc3c2C(C)C)cc(C)n1 | human TLR9 (Homo sapiens (Human)) | not met |
